assaySystem: T1, human RANKL protein (Sino Biological, 11682-HNCH) (human, UniProt O14788 136-317, limits assumed)
T1 construct: Bought protein
T1 sequence (looked up): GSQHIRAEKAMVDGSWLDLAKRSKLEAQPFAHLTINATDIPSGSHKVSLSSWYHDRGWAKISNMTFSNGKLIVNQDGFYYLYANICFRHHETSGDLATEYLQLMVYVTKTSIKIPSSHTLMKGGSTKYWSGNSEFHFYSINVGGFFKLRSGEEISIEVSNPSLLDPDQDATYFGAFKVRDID
measurementNotes: SPR (Biacore), antibody captured on Protein A chip, RANKL in flow, 1:1 fit
Each record here notes measured Ratio of affinities (fold increase in affinity relative to denosumab).
Report the figure along with its unit, number first.

- binder: "3-83L (antibody, V domains shown, Variable regions fused to human constant regions) VH: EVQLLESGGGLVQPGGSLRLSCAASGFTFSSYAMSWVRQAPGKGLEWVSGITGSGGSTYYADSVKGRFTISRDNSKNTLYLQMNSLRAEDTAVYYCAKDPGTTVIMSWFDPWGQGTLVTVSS VL: EIVLTQSPGTLSLSPGERATLSCRASQALGVRGLAWYQQKPGQAPRLLIYGASSRATGIPDRFSGSGSGTDFTLTISRLEPEDFAVFYCQQYGSSPRTFGQGTKVEIK"
  experimentalResult: "0.45 fold"
- binder: "5-53H (antibody, V domains shown, Variable regions fused to human constant regions) VH: EVQLLESGGGLVQPGGSLRLSCAASGFTFSSYAMSWVRQAPGKGLEWVSGITGSGGSTYYADSVKGRFTISRDNSKNTLYLQMNSLRAEDTAVYYCAQDPCFTYIMSWFDPWGQGTLVTVSS VL: EIVLTQSPGTLSLSPGERATLSCRASQSVRGRYLAWYQQKPGQAPRLLIYGASSRATGIPDRFSGSGSGTDFTLTISRLEPEDFAVFYCQQYGSSPRTFGQGTKVEIK"
  experimentalResult: "0.27 fold"

The record that follows has no Ratio of affinities (fold increase in affinity relative to denosumab) shown yet.
*Q* Complete the entry with Ratio of affinities (fold increase in affinity relative to denosumab) for 3-37L (antibody, IgG4, V domains shown, Variable regions fused to human constant regions) VH: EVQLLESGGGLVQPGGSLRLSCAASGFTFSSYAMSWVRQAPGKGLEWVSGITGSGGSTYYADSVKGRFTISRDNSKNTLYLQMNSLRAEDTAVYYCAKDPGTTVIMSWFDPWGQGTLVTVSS VL: EIVLTQSPGTLSLSPGERATLSCRASQAIRGRKLAWYQQKPGQAPRLLIYDTSSRATGIPDRFSGSGSGTDFTLTISRLEPEDFAVFYCQQYGSSPRTFGQGTKVEIK
*A* 0.47 fold
